Origin of measurements: PubChem BioAssay (NCI)

# Tested on: EKVX NSCLC
# measurement_notes: NCI-60 one-dose screen, 48 h (100 = growth as untreated, 0 = no growth, -100 = all killed)
# assay_conditions: 10 µM unless noted
# Procedure: Growth inhibition of the EKVX human Non-Small Cell Lung tumor cell line is measured as a screen for anti-cancer activity. Cells are grown in 96 well plates and exposed to the test compound for 48 hours. Compounds are tested at a single concentration, which is 10^-5 M for most compounds. The reported endpoint is percent growth (GI% or GIPRCNT), where numbers from 0 - 100% represent growth inhibition, and numbers from -100% - 0 represent cell death. […]
This is part of a sample that, as a whole, favours compounds with a hit. Of some 83,000 tested, about 20% had one in any assay.
API: label(entry) gives label 1 if the entry's growth is strictly smaller than 70%; on equality or larger values it gives label 0.

[[record]]
compound = "CCCCCCCCCCCCCCCCCC1OCC(COC(=O)O[C@@H](C(=O)O[C@H]2C[C@@]3(O)[C@@H](OC(=O)c4ccccc4)[C@@H]4[C@]5(OC(C)=O)CO[C@@H]5C[C@H](O)[C@@]4(C)C(=O)[C@H](OC(C)=O)C(=C2C)C3(C)C)[C@@H](NC(=O)c2ccccc2)c2ccccc2)O1 (stereo partly specified)"
label = "label 0"

[[record]]
compound = "CC[C@H](C)[C@H](NC(=O)[C@H]1CCCCN1C)C(=O)N(C)[C@H](C(=O)NC12CC(C(=O)N[C@@H](Cc3ccccc3)C[C@H](C)C(=O)OC)(C1)C2)C(C)C"
label = "label 0"

[[record]]
compound = "COC12CC3(C)C(C4=CC(=O)OC4)CCC3(O)C3CCC4=CC(=O)CCC4(CO1)C32 (stereo unspecified)"
label = "label 0"


Kindly review the next compound as well.
Inquiry: I wonder whether CCOP(=O)(NC)OCC has growth below 70%. Can you tell?
Reply text: label 0

---

# System: PC-3 prostate
# measurement_notes: NCI-60 one-dose screen, 48 h (100 = growth as untreated, 0 = no growth, -100 = all killed)
# assay_conditions: 10 µM unless noted
Compounds without any hit were thinned out: in the full panel of roughly 83,000, 20% have a hit.
# key: entry, value: growth
Supply the numeric figure in %, leaving out any unit text.

Some entries whose results are on file:
[[record]]
smiles_notation = "NC(N)=NC(N)=Nc1ccc(Cl)cc1"
property_measured = "growth"
observed_result = 89.5

[[record]]
smiles_notation = "CC1=C2[C@H]3OC(=O)[C@@H](C)[C@@H]3CC[C@@]2(C)C=CC1=O"
property_measured = "growth"
observed_result = 50.5

[[record]]
smiles_notation = "CN(C)[C@@H]1C(=O)C(C(N)=O)=C(O)[C@@]2(O)C(=O)C3=C(O)c4c(O)ccc(Cl)c4[C@@](C)(O)[C@H]3C[C@@H]12"
property_measured = "growth"
observed_result = 81.6

[[record]]
smiles_notation = "CN1[C@@H](CC(=O)c2ccccc2)CCC[C@H]1CC(=O)c1ccccc1"
property_measured = "growth"
observed_result = 93


Next:
Inquiry: Read off the recorded growth for C#Cc1cccc(Nc2nc(Cl)nc3cc(NC(=O)CF)ccc23)c1
Reply text: 57.8

---

# Tested on: RPMI-8226 leukemia
# measurement_notes: NCI-60 one-dose screen, 48 h (100 = growth as untreated, 0 = no growth, -100 = all killed)
# assay_conditions: 10 µM unless noted
The panel holds about 83,000 compounds, 20% with a hit somewhere; the sample as a whole holds those more often.
property_measured: growth (%)
Supply the numeric figure in %, leaving out any unit text.

Some entries whose results are on file:
[[record]]
molecule = "CCOC(=O)c1cncn1C(C)c1ccccc1 (stereo not given)"
property_measured = "growth"
output_unit = "%"
observed_result = 105

[[record]]
molecule = "N#Cc1ccc(Cl)cc1"
property_measured = "growth"
output_unit = "%"
observed_result = 106

[[record]]
molecule = "COc1cc2c(cc1OC)-c1c3c(cc4c1[C@@H](C2)N(C)CC4)OCO3"
property_measured = "growth"
output_unit = "%"
observed_result = 23.9

[[record]]
molecule = "CSc1cc(/C=C(\\C)[C@@H]2C[C@@H]3O[C@]3(C)CCC[C@H](C)[C@H](O)[C@@H](C)C(=O)C(C)(C)[C@@H](O)CC(=O)O2)n(CCNC(=O)OC(C)(C)C)n1"
property_measured = "growth"
output_unit = "%"
observed_result = 29.7


Next:
Inquiry: Read off the recorded growth for Oc1cc(N2CC2)c(O)cc1N1CC1
Reply text: 2.53
